Below, each of the sequences is paired with its reported apparent Kd value.
- Tested on: MS2 coat protein
- method description: apparent Kd, MS2 coat protein; higher = weaker binding; RNA-MaP array; FMN 200 µM where present
- study conditions: ligand present: flavin mononucleotide; designed as: OFF switch for flavin mononucleotide
Number plus unit, in that order.

Here is how some sequences turned out for apparent Kd.
CUCGUGUUAGGAUAUCGUGGCUGGGCUGGGACGUCCGAUCGCGAGAAGGGACAUGAGGAUCACCCAUGUAAAAC
86 nM
CCUUUCGGUGUCAGGAUAUACUGCGCCUGGCGCAAGUAGAAGGGACAUGAGGAUCACCCAUGUAGCGGGACCGA
81.9 nM
UCCGCAAGUGAAGGAUAUACGGCUGAAGAGCCAGUAGAAGGUCACAUGAGGAUCACCCAUGUCUACCGCUACGAGAUAUUACAA
59.5 nM

IN: Which apparent Kd is reported with MS2 coat protein for this entry: GGACAGUCAGGAUAUACAUGAGGAUCACCCAUGUUGAGAUGUGAAAGGGCGGGAGUAGGUAGAAGGGACGAGAG ?
OUT: 27.5 nM

IN: Which apparent Kd is reported with MS2 coat protein for this entry: UCGUUUGUACUAGGAUAUACCGACGAAAGAUCAGUAGAAGGAGUAACAGACAUGAGGAUCACCCAUGUAUGGGUCCUUAAACAA ?
OUT: 217 nM

IN: Which apparent Kd is reported with MS2 coat protein for this entry: UCUACAUAGAUUCAUCAAUACAGUAAGGAUAUGAGAUACAUGAGGAUCACCCAUGUGCAUGUGAAUUAGAAGGUACAAUUAACU ?
OUT: 12.8 nM
